Assay System: UniProt P30542
Method: Adenosine receptor TR-FRET binding assay (A1)
Condition Set: inhibition of binding of 100 nM CA200645, CHO cell membranes
Recorded Metric: pKi
// pKi here means minus log10 of the molar concentration (mol/L)

Completed entries (count: 7):
>  <Cpd Smiles>
Cc1cc(-c2sc(NC(=O)N3CC4(CCOC4)C3)nc2-c2cccc(C#N)c2)cc(C(C)(C)O)n1

>  <Recorded Metric>
pKi

>  <Experimental Value>
8.15

$$$$
>  <Cpd Smiles>
Cc1cc(-c2sc(NC(=O)N3CCN(C)CC3)nc2-c2cccc(C#N)c2)cc(C)n1

>  <Recorded Metric>
pKi

>  <Experimental Value>
7.22

$$$$
>  <Cpd Smiles>
Cc1cc(-c2sc(NC(=O)N3CCC(C(N)=O)CC3)nc2-c2cccc(C#N)c2)cc(C)n1

>  <Recorded Metric>
pKi

>  <Experimental Value>
7.62

$$$$
>  <Cpd Smiles>
Cc1cc(-c2sc(NC(=O)N3CCOCC3)nc2-c2cccc(C#N)c2)cc(Cl)n1

>  <Recorded Metric>
pKi

>  <Experimental Value>
8.05

$$$$
>  <Cpd Smiles>
Cc1cc(-c2sc(NC(=O)N3CC(N4CCOCC4)C3)nc2-c2cccc(C#N)c2)cc(C)n1

>  <Recorded Metric>
pKi

>  <Experimental Value>
6.47

$$$$
>  <Cpd Smiles>
Cc1cc(-c2sc(NC(=O)N3CCC(n4cccn4)CC3)nc2-c2cccc(C#N)c2)cc(C)n1

>  <Recorded Metric>
pKi

>  <Experimental Value>
8.22

$$$$
>  <Cpd Smiles>
Cc1cc(-c2sc(NC(=O)N3CC4CCC(C3)N4)nc2-c2cccc(C#N)c2)cc(C)n1

>  <Recorded Metric>
pKi

>  <Experimental Value>
6.88

$$$$

// switching to the query compound
Entry Cc1cc(-c2sc(NC(=O)N3CCC4(CCOC(=O)N4)CC3)nc2-c2cccc(C#N)c2)cc(C)n1 has what pKi?
6.87

---

Recorded pKi values (UniProt:P0DMS8) are given below.
// pKi here means minus log10 of the molar concentration (mol/L)

Completed entries (count: 3):
>  <Compound>
Cc1cc(-c2sc(NC(=O)N3CC[S+]([O-])CC3)nc2-c2cccc(C#N)c2)c(F)c(C)n1

>  <Assay System>
UniProt:P0DMS8

>  <pKi>
6.55

$$$$
>  <Compound>
Cc1cc(-c2sc(NC(=O)N3CC4(COC4)C3)nc2-c2cccc(C#N)c2)cc(C)n1

>  <Assay System>
UniProt:P0DMS8

>  <pKi>
6.41

$$$$
>  <Compound>
Cc1cc(-c2sc(NC(=O)N3CCC(C)(C#N)C3)nc2-c2cccc(C#N)c2)cc(C2COC2)n1 (stereo not shown)

>  <Assay System>
UniProt:P0DMS8

>  <pKi>
6.02

$$$$

Entry Cc1cc(-c2sc(NC(=O)N3CC[S+]([O-])CC3)nc2-c2cccc(C#N)c2)cc(C)n1 has what pKi?
6.42

---

Assay System: human Adenosine A1 receptor (Homo sapiens (Human))
Sequence (P30542 whole entry): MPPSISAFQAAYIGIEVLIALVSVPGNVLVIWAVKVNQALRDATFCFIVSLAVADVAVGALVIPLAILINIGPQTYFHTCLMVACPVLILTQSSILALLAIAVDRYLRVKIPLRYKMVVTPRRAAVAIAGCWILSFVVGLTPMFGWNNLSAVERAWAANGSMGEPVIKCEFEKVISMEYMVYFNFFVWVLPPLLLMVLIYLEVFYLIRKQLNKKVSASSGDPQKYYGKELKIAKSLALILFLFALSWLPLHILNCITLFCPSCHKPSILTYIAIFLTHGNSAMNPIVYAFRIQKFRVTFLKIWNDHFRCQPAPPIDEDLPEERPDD
Method: Adenosine receptor TR-FRET binding assay (A1)
Condition Set: inhibition of binding of 100 nM CA200645, CHO cell membranes
Parameter pKi: see the listing below.
// pKi here means minus log10 of the molar concentration (mol/L)

Completed entries (count: 3):
>  <Molecule>
Cc1cc(-c2sc(NC(=O)N3C[C@@H]4C[C@H]3CN4C)nc2-c2cccc(C#N)c2)cc(C)n1 [Example 6.102]

>  <pKi>
7.19

$$$$
>  <Molecule>
Cc1cc(-c2sc(NC(=O)N3C[C@@H]4OCCN(C)[C@H]4C3)nc2-c2cccc(C#N)c2)cc(C(F)F)n1 (racemic) [Example 6.109]

>  <pKi>
6.33

$$$$
>  <Molecule>
Cc1cc(-c2sc(NC(=O)N3CCN(C4COC4)CC3)nc2-c2cccc(C#N)c2)cc(C)n1 [Example 4.4]

>  <pKi>
6.58

$$$$

Entry Cc1cc(-c2sc(NC(=O)N3CCC4(CC3)NC(=O)N(C)C4=O)nc2-c2cccc(C#N)c2)cc(C)n1 [Example 6.6] has what pKi?
7.09

---

Assay System: human Adenosine A1 receptor (Homo sapiens (Human))
Method: Adenosine receptor TR-FRET binding assay (A1)
Condition Set: inhibition of binding of 100 nM CA200645, CHO cell membranes
Structures can show the parent of a compound that is named as a salt.
Recorded Metric: Ki (nM)
# number only, unit nM dropped from output

>  <Molecule>
Cc1cc(-c2sc(NC(=O)N3CCC(N4CCOCC4)C3)nc2-c2cccc(C#N)c2)cc(C)n1 (stereo not shown) [Example 6.84, hemi formate salt]

>  <Recorded Metric>
Ki

>  <Experimental Value>
216

$$$$
>  <Molecule>
CNC(=O)C1CCN(C(=O)Nc2nc(-c3cccc(C#N)c3)c(-c3cc(C)nc(C)c3)s2)CC1

>  <Recorded Metric>
Ki

>  <Experimental Value>
32

$$$$
>  <Molecule>
Cc1cc(-c2sc(NC(=O)N3CC4(COC4)C3)nc2-c2cccc(C#N)c2)cc(C(F)(F)F)n1

>  <Recorded Metric>
Ki

>  <Experimental Value>
14

$$$$

// switching to the query molecule
Entry Cc1cc(-c2sc(NC(=O)N3CCN4CCS(=O)(=O)CC4C3)nc2-c2cccc(C#N)c2)cc(C)n1 (stereo not shown) has what Ki?
167

---

Recorded pKi values (human Adenosine A3 receptor (Homo sapiens (Human))) are given below.
// pKi here means minus log10 of the molar concentration (mol/L)

>  <Molecule>
Cc1cc(-c2sc(NC(=O)N3CCN[C@@H](C)C3)nc2-c2cccc(C#N)c2)cc(Cl)n1

>  <Recorded Metric>
pKi

>  <Experimental Value>
7.48

$$$$
>  <Molecule>
Cc1cc(-c2sc(NC(=O)N3CCC4(CC3)CNC4=O)nc2-c2cccc(C#N)c2)cc(CO)n1

>  <Recorded Metric>
pKi

>  <Experimental Value>
6.00

$$$$
>  <Molecule>
Cc1cc(-c2sc(NC(=O)N3CCC(c4ncon4)CC3)nc2-c2cccc(C#N)c2)cc(C)n1

>  <Recorded Metric>
pKi

>  <Experimental Value>
6.97

$$$$
>  <Molecule>
Cc1cc(-c2sc(NC(=O)N3CCN4C(=O)COCC4C3)nc2-c2cccc(C#N)c2)cc(C)n1 (stereo not shown)

>  <Recorded Metric>
pKi

>  <Experimental Value>
6.45

$$$$
>  <Molecule>
Cc1cc(-c2sc(NC(=O)N3CC[C@H](C(N)=O)C3)nc2-c2cccc(C#N)c2)cc(C)n1

>  <Recorded Metric>
pKi

>  <Experimental Value>
6.90

$$$$
>  <Molecule>
Cc1cc(-c2sc(NC(=O)N3CCN[C@H](C)C3)nc2-c2cccc(C#N)c2)cc(C)n1

>  <Recorded Metric>
pKi

>  <Experimental Value>
6.38

$$$$

// switching to the query molecule
Entry Cc1cc(-c2sc(NC(=O)N3CC4(COC4)C3)nc2-c2cccc(C#N)c2)cc([C@@H](C)O)n1 (single isomer, unassigned) has what pKi?
5.96

---

Parameter Ki: see the listing below.
Assay System: UniProtKB P29274
Sequence (P29274 whole entry): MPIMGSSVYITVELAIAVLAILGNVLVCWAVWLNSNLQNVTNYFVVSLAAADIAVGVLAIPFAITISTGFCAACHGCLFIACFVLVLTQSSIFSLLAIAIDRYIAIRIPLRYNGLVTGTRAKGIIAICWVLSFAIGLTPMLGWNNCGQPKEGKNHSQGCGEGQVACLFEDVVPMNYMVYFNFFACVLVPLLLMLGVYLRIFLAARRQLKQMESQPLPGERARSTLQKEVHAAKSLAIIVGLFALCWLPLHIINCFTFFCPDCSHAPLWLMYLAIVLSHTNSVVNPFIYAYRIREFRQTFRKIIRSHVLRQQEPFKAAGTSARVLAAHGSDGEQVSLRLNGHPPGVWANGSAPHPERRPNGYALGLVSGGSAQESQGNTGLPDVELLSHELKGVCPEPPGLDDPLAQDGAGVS
Entry format: amount then unit.

Completed entries (count: 4):
>  <Compound>
Cc1cc(-c2sc(NC(=O)N3C[C@@H]4NCCO[C@H]4C3)nc2-c2cccc(C#N)c2)cc(C)n1 (racemic) [Example 14.3]

>  <Recorded Metric>
Ki

>  <Experimental Value>
3.49 nM

$$$$
>  <Compound>
Cc1cc(-c2sc(NC(=O)N3CCC4(CC3)C(=O)N(C)C(=O)N4C)nc2-c2cccc(C#N)c2)cc(CO)n1 [Example 9.5]

>  <Recorded Metric>
Ki

>  <Experimental Value>
2.28 nM

$$$$
>  <Compound>
Cc1cc(-c2sc(NC(=O)N3CCC4(COCCN4)C3)nc2-c2cccc(C#N)c2)cc(C)n1 (centres unmarked) [Example 13.9]

>  <Recorded Metric>
Ki

>  <Experimental Value>
2.01 nM

$$$$
>  <Compound>
Cc1cc(-c2sc(NC(=O)N3CC4(COC4)C3)nc2-c2cccc(C#N)c2)cc(C(C)O)n1 (racemic) [Example 12.3]

>  <Recorded Metric>
Ki

>  <Experimental Value>
0.44 nM

$$$$

Reported Ki for UniProtKB P29274, given CN=S1(=O)CCN(C(=O)Nc2nc(-c3cccc(C#N)c3)c(-c3cc(C)nc(C)c3)s2)CC1 [Example 6.32] ?
0.83 nM

Next record, please: Cc1cc(-c2sc(NC(=O)N3CC(O)C3)nc2-c2cccc(C#N)c2)cc(C)n1 [Example 4.30]
0.41 nM

Next record, please: Cc1cc(-c2sc(NC(=O)N3CCNCC3CC3CC3)nc2-c2cccc(C#N)c2)cc(C)n1 (centres unmarked) [Example 14.5]
0.43 nM

Next record, please: Cc1cc(-c2sc(NC(=O)N3CCC(S(N)(=O)=O)C3)nc2-c2cccc(C#N)c2)cc(C)n1 (centres unmarked) [Example 6.2]
1.28 nM

Next record, please: Cc1cc(-c2sc(NC(=O)N3CCN4CCNC(=O)C4C3)nc2-c2cccc(C#N)c2)cc(C)n1 (centres unmarked) [Example 6.16]
3.99 nM

Next record, please: Cc1cc(-c2sc(NC(=O)N3CCN4C(=O)OCCC4C3)nc2-c2cccc(C#N)c2)cc(C)n1 (centres unmarked) [Example 6.17]
0.46 nM

Next record, please: Cc1cc(-c2sc(NC(=O)N3C[C@@H](C)N[C@@H](C)C3)nc2-c2cccc(C#N)c2)cc(C)n1 [Example 13]
24.3 nM

Next record, please: Cc1cc(-c2sc(NC(=O)N3CCC(C#N)(CO)CC3)nc2-c2cccc(C#N)c2)cc(C)n1 [Example 4.23]
0.2 nM

Next record, please: Cc1cc(-c2sc(NC(=O)N3CC4(C3)CS(=O)(=O)C4)nc2-c2cccc(C#N)c2)cc(C)n1 [Example 6.46]
2.06 nM

Next record, please: Cc1cc(-c2sc(NC(=O)N3CCN(CCO)CC3)nc2-c2cccc(C#N)c2)cc(C)n1 [Example 4.3]
0.7 nM

Next record, please: Cc1cc(-c2sc(NC(=O)N3CC4(COC4)C3)nc2-c2cccc(C#N)c2)cc([C@@H](C)O)n1 (single isomer, unassigned) [Example 12.3b]
0.42 nM
